Test system: Bovine cardiac myofibrils
PROTOCOL DESCRIPTION: In vitro model of dose-dependent myofibril ATPase modulation (AC1.4, pyruvate kinase/lactate dehydrogenase-coupled ATPase assay at pCa25)
Assay type: biochemical
MEASUREMENT CONDITIONS: concentration at which ATPase activity was 1.4-fold higher than the bottom of the dose curve, mean of a minimum of two independent tests
ENDPOINT LABEL: AC1.4 (µM)
Value expressed in µM; do not type the unit.

Q. Param readout = AC1.4; param system = Bovine cardiac myofibrils; param query = O=C(NCc1ccc(C(F)(F)F)cc1)[C@H]1CCCN1C(=O)[C@H]1CCCN(S(=O)(=O)N2CC(C(F)F)C2)C1 [Example 274] ; response: value
A. 0.6977

Q. Lab request: please report AC1.4 under test system Bovine cardiac myofibrils for CC(C)(C)c1cccc(C(=O)N2[C@@H](C(=O)N[C@@H](c3ccc(C(F)(F)F)cc3F)C3COC3)C[C@H]3C[C@H]32)c1 [Example 213]
A. 0.4603

Q. API: value(readout=AC1.4, system=Bovine cardiac myofibrils) for record O=C(N[C@@H](c1cc(F)c(C(F)(F)F)cc1F)C1CC1)[C@H]1C[C@H]2C[C@H]2N1C(=O)c1cccc(C(F)(F)F)c1 [Example 115]
A. 0.1774

Q. Request - read-out AC1.4 | tested on Bovine cardiac myofibrils | molecule C[C@@H](NC(=O)[C@H]1CCCN1C(=O)[C@H]1CCCN(S(=O)(=O)N2CC(C#N)C2)C1)c1ccc(Cl)c(F)c1 [Example 69]
A. 0.08835

Q. For the record N#CC1CN(S(=O)(=O)N2CCC[C@H](C(=O)N3CCC[C@@H]3C(=O)NCc3ccc(Cl)c(Cl)c3)C2)C1 [Example 91] , what value of AC1.4 is listed for Bovine cardiac myofibrils?
A. 0.1384

Q. Give the reported AC1.4 for O=C(N[C@@H](c1cc(F)c(C(F)(F)F)cc1F)C1CC1)[C@H]1C[C@H]2C[C@H]2N1C(=O)c1cc(C2CC2)ccn1 [Example 593] (system: Bovine cardiac myofibrils).
A. 3.49
